- target desc: D(4) dopamine receptor (Homo sapiens)
- settings: CHO-K1
- Description: Ability to displace [3H]spiperone from dopamine receptor D4.4 expressed in CHO-K1 cells
measurement type: pKi
Answers are plain numbers.

Here are 2 compounds together with their reported answers.
OCc1ccc2c(CN3CCN(c4ccccc4)CC3)cnn2c1: 7.71
Cc1cccc2c(CN3CCN(c4ccc(Cl)cc4)CC3)cnn12: 8.57

Quick one: give me pKi for each item below, same order please.
1. FC(F)(F)c1cccc(N2CCN(Cc3cnn4ccccc34)CC2)c1
2. C#Cc1cccc2c(CN3CCN(c4ccc(Cl)cc4)CC3)cnn12
3. Clc1ccc(N2CCN(Cc3ccc[nH]3)CC2)cc1
4. Clc1ccc(N2CCN(Cc3cc4ccccc4[nH]3)CC2)cc1
5. Clc1ccc(N2CCN(Cc3cnn4ccccc34)CC2)cc1Cl
6. Clc1ccc(N2CCN(Cc3cc[nH]c3)CC2)cc1
7. C#Cc1ccc(N2CCN(Cc3cnn4ccccc34)CC2)cc1
8. CCN1CCN(Cc2cnn3ccccc23)CC1

[8.72, 8.91, 7.58, 7.74, 8.25, 7.41, 8.36, 4.62]

Quick one: give me pKi for each item below, same order please.
1. Clc1cccc(N2CCN(Cc3cnn4c3ccc3ccccc34)CC2)c1
2. N#CC(C#N)=Cc1ccc(CN2CCN(c3ccc(Cl)cc3)CC2)[nH]1
3. Cc1cccn2ncc(CN3CCN(c4ccc(Cl)cc4)CC3)c12

1: 6.66; 2: 8.02; 3: 7.3

Look at this compound and give its reported pKi. Clc1ccc(N2CCN(Cc3cc4ccccn4n3)CC2)cc1
8.66

====

- target desc: D(4) dopamine receptor (Homo sapiens)
- settings: CHO-K1
measurement type: pKi
Numbers only.

Clc1ccc(N2CCN(Cc3cnn4c(I)cccc34)CC2)cc1: 8.3

Quick one: give me pKi for each item below, same order please.
1. Fc1ccc(N2CCN(Cc3cnn4ccccc34)CC2)cc1
2. Ic1ccc(N2CCN(Cc3cnn4ccccc34)CC2)cc1
3. Clc1cccc(N2CCN(Cc3cnn4ccc5ccccc5c34)CC2)c1
4. Clc1ccc(N2CCN(Cc3ccccc3)CC2)cc1
5. N#CC(C#N)=Cc1cc(CN2CCN(c3ccc(Cl)cc3)CC2)c[nH]1

7.7
8.52
6.1
6.6
8.24
